# targetDesc: EPHB4 (human) (UniProt P54760)
# Sequence (P54760 whole entry, looked up): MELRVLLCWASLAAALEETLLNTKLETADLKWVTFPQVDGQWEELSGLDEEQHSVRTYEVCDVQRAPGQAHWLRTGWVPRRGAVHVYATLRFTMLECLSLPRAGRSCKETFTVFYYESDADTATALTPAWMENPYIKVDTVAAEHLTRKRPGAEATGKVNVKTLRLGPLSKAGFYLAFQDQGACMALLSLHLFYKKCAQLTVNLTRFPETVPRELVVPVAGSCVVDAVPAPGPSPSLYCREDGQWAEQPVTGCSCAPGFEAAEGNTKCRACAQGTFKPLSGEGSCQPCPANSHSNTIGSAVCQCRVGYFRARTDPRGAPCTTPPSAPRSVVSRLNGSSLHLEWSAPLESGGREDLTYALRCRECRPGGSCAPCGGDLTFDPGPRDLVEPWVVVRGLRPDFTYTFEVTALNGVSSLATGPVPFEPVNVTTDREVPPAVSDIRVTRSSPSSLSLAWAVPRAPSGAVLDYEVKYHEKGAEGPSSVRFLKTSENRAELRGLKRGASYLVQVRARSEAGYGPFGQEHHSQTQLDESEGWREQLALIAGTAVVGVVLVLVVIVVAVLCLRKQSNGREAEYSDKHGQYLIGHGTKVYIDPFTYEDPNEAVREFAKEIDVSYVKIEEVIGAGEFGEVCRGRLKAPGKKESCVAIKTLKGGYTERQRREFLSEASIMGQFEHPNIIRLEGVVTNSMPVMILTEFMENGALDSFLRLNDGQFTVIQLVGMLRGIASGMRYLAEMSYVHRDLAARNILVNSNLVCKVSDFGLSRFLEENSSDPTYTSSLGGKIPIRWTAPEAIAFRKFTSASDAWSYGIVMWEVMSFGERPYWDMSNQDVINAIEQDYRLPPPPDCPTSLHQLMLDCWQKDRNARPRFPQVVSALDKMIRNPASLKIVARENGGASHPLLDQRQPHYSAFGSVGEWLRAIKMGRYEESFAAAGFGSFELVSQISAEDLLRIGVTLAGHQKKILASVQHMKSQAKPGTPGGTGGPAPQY
# assayDetails: radiometric filter-binding kinase assay, Kinase HotSpot
# settings: compound 0.5 µM; ATP 10 µM
readoutKind: residual activity (%)

>>> print(df.to_string())
                                smilesinput        readoutkind  reportedresult
0       Fc1ccc(-c2nc3n(c2-c2ccncc2)CCS3)cc1  residual activity              88
1     COc1ccc2c(c1)/C(=C/c1cnc[nH]1)C(O)=N2  residual activity            91.1
2  Cc1cccc(-c2nc(C(C)(C)C)[nH]c2-c2ccc3c(c2)OCO3)n1  residual activity            91.4
3  NC(=O)c1cccc(-c2cc(Nc3ccc(OC(F)(F)F)cc3)ncn2)c1  residual activity            90.6
4  O=C(c1cc2cc(O)ccc2[nH]1)c1cc2cc(O)ccc2[nH]1  residual activity            89.3
5  C[C@@H]1CCN(C(=O)CC#N)C[C@@H]1N(C)c1ncnc2[nH]ccc12  residual activity            89.8
